These entries and their values trace back to patent US8778929B2.

Reported remaining activity at 2 µM values for a set of compounds
test target: B-Raf (V600E)-kinase (Homo sapiens, UniProt P15056, V600E)
Sequence (P15056 whole entry V600E): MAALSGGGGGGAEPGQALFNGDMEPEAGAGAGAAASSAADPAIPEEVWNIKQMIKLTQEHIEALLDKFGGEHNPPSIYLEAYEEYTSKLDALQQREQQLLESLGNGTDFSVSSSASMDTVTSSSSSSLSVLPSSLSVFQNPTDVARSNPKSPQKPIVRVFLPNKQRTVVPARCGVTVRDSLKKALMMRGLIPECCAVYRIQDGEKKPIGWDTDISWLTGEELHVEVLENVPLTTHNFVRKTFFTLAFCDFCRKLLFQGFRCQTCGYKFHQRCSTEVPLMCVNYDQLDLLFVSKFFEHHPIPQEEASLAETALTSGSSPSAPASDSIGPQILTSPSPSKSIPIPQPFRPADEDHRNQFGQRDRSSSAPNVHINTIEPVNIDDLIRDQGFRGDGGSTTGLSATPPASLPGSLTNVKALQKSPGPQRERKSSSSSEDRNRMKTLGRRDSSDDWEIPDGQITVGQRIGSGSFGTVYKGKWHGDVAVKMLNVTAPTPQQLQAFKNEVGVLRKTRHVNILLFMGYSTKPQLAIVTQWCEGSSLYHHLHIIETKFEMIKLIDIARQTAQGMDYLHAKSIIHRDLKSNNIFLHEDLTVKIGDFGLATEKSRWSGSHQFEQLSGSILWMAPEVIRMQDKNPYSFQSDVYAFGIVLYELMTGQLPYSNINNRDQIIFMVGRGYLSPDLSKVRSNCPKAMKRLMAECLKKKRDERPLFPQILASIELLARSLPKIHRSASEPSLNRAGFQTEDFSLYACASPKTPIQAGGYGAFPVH
assay notes: Kinase test B-Raf (V600E)
Format: biochemical
condition label: compound concentration 2 μM; 100% = no inhibition, 0% = total inhibition; read-out: % CTL (residual activity of the enzyme relative to DMSO control)
Unit % implied. Number only.

A selection of reference data follows.
| compound | endpoint | value unit | value measured |
| --- | --- | --- | --- |
| Cc1ncc(C(=O)Nc2cc(C(C)(C)C)on2)cc1-n1cc(-c2cncc(CN3CCC(F)(F)C3)c2)nn1 [Example I-189] | remaining activity at 2 µM | % | 3.8 |
| CCNc1cc(NC(=O)c2cnc(C)c(-n3cc(-c4cnn(C)c4C)nn3)c2)cc(C(F)(F)F)c1C [Example I-68] | remaining activity at 2 µM | % | 4.7 |
| CC(=O)Nc1ncc(-c2cn(-c3cc(C(=O)Nc4cc(C(F)(F)F)ccn4)cnc3C)nn2)s1 [Example I-14] | remaining activity at 2 µM | % | 1.4 |
| COc1cncc(-c2cn(-c3cc(C(=O)Nc4cc(OC(F)(F)F)cc(N5CCN(C)CC5)c4)cnc3C)nn2)c1 [Example I-85] | remaining activity at 2 µM | % | 1.1 |
| Cc1ncc(C(=O)Nc2cc(C(C)(C)C)on2)cc1-n1cc(-c2cncc(N3CCN(CCC#N)CC3)c2)nn1 [Example I-175] | remaining activity at 2 µM | % | 8.1 |

# get_value(readout= remaining activity at 2 µM, system= B-Raf (V600E)-kinase (Homo sapiens, UniProt P15056, V600E)) for Cc1ncc(C(=O)Nc2cc(OC(F)(F)F)cc(N3CCN(C)CC3)c2)cc1-n1cc(-c2cncs2)nn1 [Example I-51]
4

# get_value(readout= remaining activity at 2 µM, system= B-Raf (V600E)-kinase (Homo sapiens, UniProt P15056, V600E)) for CCN1CCN(c2cc(OC(F)(F)F)cc(C(=O)Nc3cnc(C)c(-n4cc(-c5cnn(C)c5C)nn4)c3)c2)CC1 [XII-22]
3.4

# get_value(readout= remaining activity at 2 µM, system= B-Raf (V600E)-kinase (Homo sapiens, UniProt P15056, V600E)) for Cc1ncc(C(=O)Nc2cc(CN3CCCC3)c(Cl)c(C(F)(F)F)c2)cc1-n1cc(-c2cncs2)nn1 [Example I-127]
6.1

# get_value(readout= remaining activity at 2 µM, system= B-Raf (V600E)-kinase (Homo sapiens, UniProt P15056, V600E)) for COCCNc1cncc(-c2cn(-c3cc(C(=O)Nc4cc(C(C)(C)C)on4)cnc3C)nn2)c1 [Example I-41]
1.1

# get_value(readout= remaining activity at 2 µM, system= B-Raf (V600E)-kinase (Homo sapiens, UniProt P15056, V600E)) for Cc1ncc(C(=O)Nc2cc(C(C)(C)C)on2)cc1-n1cc(-c2cncc(N3CCN(CC4CCCCC4)CC3)c2)nn1 [Example I-173]
2.4

# get_value(readout= remaining activity at 2 µM, system= B-Raf (V600E)-kinase (Homo sapiens, UniProt P15056, V600E)) for Cc1ncc(C(=O)Nc2cc(C(C)(C)C)on2)cc1-n1cc(-c2cncc(N3CCN(CCOC(C)C)CC3)c2)nn1 [Example I-197]
1

# get_value(readout= remaining activity at 2 µM, system= B-Raf (V600E)-kinase (Homo sapiens, UniProt P15056, V600E)) for Cc1ncc(NC(=O)c2cc(OC(F)(F)F)cc(N3CCC(N(C)C)C3)c2)cc1-n1cc(-c2cnn(C)c2C)nn1 (centres unmarked) [XII-29]
1.6

# get_value(readout= remaining activity at 2 µM, system= B-Raf (V600E)-kinase (Homo sapiens, UniProt P15056, V600E)) for CCN1CCN(c2cncc(-c3cn(-c4cc(NC(=O)c5cccc(C(C)(C)C#N)c5)cnc4C)nn3)c2)CC1 [XII-51]
2.3

# get_value(readout= remaining activity at 2 µM, system= B-Raf (V600E)-kinase (Homo sapiens, UniProt P15056, V600E)) for Cc1ncc(C(=O)Nc2cc(CNCC(C)C)cc(C(F)(F)F)c2)cc1-n1cc(-c2cnn(C)c2C)nn1 [Example I-108]
1.7
